# study_target: Protein arginine N-methyltransferase 5 (Homo sapiens)
# assay_overview: Inhibition of PRMT5 (unknown origin)

mol: CCN1CCN(C[C@@H](O)[C@@H]2Cc3ccccc3CN2)C(=O)c2ccc(C(=O)N3CCC4(CC3)CC(OC)C4)cc21
IC50 (nM): 4.2

====

# study_target: Voltage-gated inwardly rectifying potassium channel KCNH2 (Homo sapiens, UniProt Q12809)
# Sequence (Q12809 whole entry): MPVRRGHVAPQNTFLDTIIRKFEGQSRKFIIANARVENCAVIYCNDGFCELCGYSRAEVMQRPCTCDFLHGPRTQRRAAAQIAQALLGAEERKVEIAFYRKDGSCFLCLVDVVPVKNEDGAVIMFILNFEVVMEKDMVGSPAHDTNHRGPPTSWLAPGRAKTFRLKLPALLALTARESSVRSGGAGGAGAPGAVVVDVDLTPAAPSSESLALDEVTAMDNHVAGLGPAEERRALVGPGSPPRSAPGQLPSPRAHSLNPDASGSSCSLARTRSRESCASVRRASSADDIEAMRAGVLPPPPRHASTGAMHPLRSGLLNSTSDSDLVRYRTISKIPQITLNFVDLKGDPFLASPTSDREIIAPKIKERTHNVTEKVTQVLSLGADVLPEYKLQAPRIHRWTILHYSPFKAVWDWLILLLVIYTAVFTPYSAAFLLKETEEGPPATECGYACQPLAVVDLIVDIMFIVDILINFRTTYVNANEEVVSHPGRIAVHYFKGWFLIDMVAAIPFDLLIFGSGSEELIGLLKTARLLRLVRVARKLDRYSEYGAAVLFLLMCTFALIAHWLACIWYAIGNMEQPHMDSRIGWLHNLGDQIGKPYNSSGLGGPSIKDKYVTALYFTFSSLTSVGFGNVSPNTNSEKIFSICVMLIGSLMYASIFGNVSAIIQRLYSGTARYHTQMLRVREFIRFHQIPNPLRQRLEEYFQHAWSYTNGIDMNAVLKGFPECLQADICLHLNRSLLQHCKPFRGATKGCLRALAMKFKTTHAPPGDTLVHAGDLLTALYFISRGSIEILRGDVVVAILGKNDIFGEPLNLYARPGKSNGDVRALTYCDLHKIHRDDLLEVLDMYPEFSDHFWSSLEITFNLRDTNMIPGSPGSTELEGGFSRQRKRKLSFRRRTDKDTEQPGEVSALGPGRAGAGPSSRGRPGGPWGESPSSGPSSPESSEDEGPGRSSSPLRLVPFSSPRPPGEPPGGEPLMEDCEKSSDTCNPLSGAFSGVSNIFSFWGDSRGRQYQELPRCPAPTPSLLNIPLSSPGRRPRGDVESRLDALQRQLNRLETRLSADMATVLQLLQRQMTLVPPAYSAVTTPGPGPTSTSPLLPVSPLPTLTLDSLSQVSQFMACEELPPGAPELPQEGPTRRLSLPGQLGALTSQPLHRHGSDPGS
# assay_overview: Inhibition of hERG potassium channel in human HEK293 cells by manual patch clamp assay
pIC50: −log10 of the molar value.
Each entry below lists one item and its recorded pIC50 value.

mol: CC(=O)N1CC2(CC(Nc3cc4c(cn3)C3(CC3)CN(C[C@H](O)CN3CCc5ccccc5C3)C4=O)C2)C1
study_target: Voltage-gated inwardly rectifying potassium channel KCNH2 (Homo sapiens, UniProt Q12809)
pIC50: 4.82
//
mol: CC(=O)N1CCC(Nc2cc3c(cn2)C2(CC2)CN(C[C@H](O)CN2CCc4ccccc4C2)C3=O)CC1
study_target: Voltage-gated inwardly rectifying potassium channel KCNH2 (Homo sapiens, UniProt Q12809)
pIC50: 5.28

====

# study_target: Protein arginine N-methyltransferase 5 (Homo sapiens)
# assay_overview: Inhibition of PRMT5 in human Z138 cells assessed as suppression of sDMA level
# Format: cell-based
pIC50: −log10 of the molar value.

mol: CCN1CCN(C[C@@H](O)[C@@H]2Cc3ccccc3CN2)C(=O)c2ccc(C(=O)N3CCC4(CC3)CC(OC)C4)cc21
pIC50: 8.85

====

# study_target: PRMT5/MEP50 complex (Homo sapiens)
# Sequence (Q9BQA1 whole entry, one chain of several, further chain): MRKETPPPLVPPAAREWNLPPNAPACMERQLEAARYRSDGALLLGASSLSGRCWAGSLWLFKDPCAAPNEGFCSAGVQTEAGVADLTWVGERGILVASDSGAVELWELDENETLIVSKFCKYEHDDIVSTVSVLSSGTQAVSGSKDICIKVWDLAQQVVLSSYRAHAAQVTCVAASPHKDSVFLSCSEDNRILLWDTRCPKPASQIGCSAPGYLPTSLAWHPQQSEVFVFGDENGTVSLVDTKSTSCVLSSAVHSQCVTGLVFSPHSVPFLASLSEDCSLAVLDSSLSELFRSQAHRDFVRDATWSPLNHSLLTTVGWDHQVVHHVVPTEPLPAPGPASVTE
# assay_overview: Binding affinity to N-terminal 6xHis-tagged full length human PRMT5/MEP50 expressed in sf21 cells using S-Adenosyl-L-methionine as substrate assessed as dissociation constant incubated for 25 to 60 mins by liquid scintillation analysis
pKd: −log10 of the molar value.
test_readout: pKd

mol: Nc1ncnc2c1ccn2[C@@H]1O[C@H]([C@H](O)c2ccc(Cl)c(F)c2)[C@@H](O)[C@H]1O
recorded_number: 9.62
//
mol: Cc1ncnc2c1ccn2[C@@H]1C[C@H](Oc2cc(C(F)F)c(F)c3c2CNCC3)[C@@H](O)[C@H]1O
recorded_number: 10.94

====

# study_target: Protein arginine N-methyltransferase 5 (Homo sapiens, UniProt O14744)
# Sequence (O14744 whole entry): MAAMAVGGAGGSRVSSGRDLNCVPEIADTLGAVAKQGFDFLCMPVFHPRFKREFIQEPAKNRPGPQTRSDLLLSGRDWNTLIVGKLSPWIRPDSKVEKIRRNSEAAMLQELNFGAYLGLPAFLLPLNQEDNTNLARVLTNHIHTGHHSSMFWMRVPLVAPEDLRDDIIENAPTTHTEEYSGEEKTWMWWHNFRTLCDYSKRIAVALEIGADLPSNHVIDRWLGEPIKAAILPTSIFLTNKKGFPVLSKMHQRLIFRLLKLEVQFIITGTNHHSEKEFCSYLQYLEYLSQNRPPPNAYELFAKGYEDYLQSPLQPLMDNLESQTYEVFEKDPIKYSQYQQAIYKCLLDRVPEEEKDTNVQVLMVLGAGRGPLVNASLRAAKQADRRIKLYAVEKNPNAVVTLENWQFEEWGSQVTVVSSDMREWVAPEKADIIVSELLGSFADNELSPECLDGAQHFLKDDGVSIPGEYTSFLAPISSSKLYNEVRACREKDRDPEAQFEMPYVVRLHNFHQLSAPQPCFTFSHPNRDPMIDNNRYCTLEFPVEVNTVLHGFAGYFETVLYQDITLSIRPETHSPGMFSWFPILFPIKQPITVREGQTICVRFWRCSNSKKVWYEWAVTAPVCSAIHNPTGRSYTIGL
# assay_overview: Inhibition of PRMT5 in human Z138 cells assessed as decrease in sDMA modification incubated for 2 days by fluorescence based assay
# Format: cell-based

mol: CC1(C)CN(C[C@@H](O)[C@@H]2Cc3ccccc3CN2)C(=O)c2ccc(C(=O)N3CCC4(CC3)CC4)cc21
study_target: Protein arginine N-methyltransferase 5 (Homo sapiens, UniProt O14744)
IC50 / nM: 0.8

====

# Test system: MDA-MB-468
# assay_overview: Antiproliferative activity against human MDA-MB-468 assessed as cell growth inhibition measured after 7 days by CCK-8 assay
# Type: functional, cell-based
# condition_set: MDA-MB-468, 168 h
pIC50: −log10 of the molar value.
test_readout: pIC50

mol: CC(=O)N1CC2(CC(Nc3cc4c(cn3)C3(CC3)CN(C[C@H](O)CN3CCc5ccccc5C3)C4=O)C2)C1
study_target: MDA-MB-468
recorded_number: 8.13

====

# System: U-87 MG
# assay_overview: Anti-proliferative activity against human U-87 MG cells assessed as cell growth inhibition incubated for 3 days by CCK-8 assay
# Format: functional, cell-based, U-87MG ATCC
# condition_set: 72 h
pIC50: −log10 of the molar value.
test_readout: pIC50

mol: Nc1ncnc2c1ccn2[C@@H]1O[C@H]([C@@H]2OCCc3cc(Cl)ccc32)[C@@H](O)[C@H]1O
test_readout: pIC50
recorded_number: 8.59

====

# study_target: Protein arginine N-methyltransferase 5 (Homo sapiens)
# assay_overview: Inhibition of PRMT5 in human U-87 MG cells assessed as suppression of sDMA level incubated for 3 days by western blot analysis
# Format: cell-based

mol: Nc1ncnc2c1ccn2[C@@H]1O[C@H]([C@@H]2OCc3cc(Cl)ccc32)[C@@H](O)[C@H]1O
IC50 [nM]: 120

====

# study_target: Protein arginine N-methyltransferase 5 (Homo sapiens, UniProt O14744)
# assay_overview: Inhibition of PRMT5 in human A427 cells assessed as reduction in sDMA level incubated for 72 hrs by liquid scintillation analysis
pIC50: −log10 of the molar value.

mol: Cc1ncnc2c1ccn2[C@@H]1C[C@H](Oc2cc(C(F)F)c(F)c3c2CNCC3)[C@@H](O)[C@H]1O
pIC50: 8.96

====

# assay_overview: Volume of distribution at steady state in rat at 2 mg/kg, iv
# Format: ADME, organism-based
# condition_set: in vivo, read-out: Vdss

mol: Cc1ncnc2c1ccn2[C@@H]1C[C@H](Oc2cc(C(F)F)c(F)c3c2CNCC3)[C@@H](O)[C@H]1O
Vd, L/kg: 3.8
